- TESTED_TARGET: Thioredoxin reductase (Homo sapiens, UniProt Q16881+Q9NNW7+Q86VQ6)
- PROTOCOL_DESCRIPTION: Inhibition of human TrxR
- Assay type: protein assay
# IC50 annotations
MEASURE: IC50

INSERT INTO assay_data (input_smiles, val) VALUES
  ('O=[N+]([O-])c1cc([N+](=O)[O-])cc(C(F)(F)F)c1', '> 200 µM'),
  ('O=[N+]([O-])c1ccc2nsnc2c1', '90 µM'),
  ('O=[N+]([O-])c1ccc2c(c1)OCO2', '> 200 µM'),
  ('O=[N+]([O-])c1ccc2c(c1[N+](=O)[O-])OCO2', '80 µM'),
  ('O=[N+]([O-])c1cc2nccnc2cc1[N+](=O)[O-]', '140 µM'),
  ('O=[N+]([O-])c1cc(C(F)(F)F)ccc1Sc1ccc(C(F)(F)F)cc1[N+](=O)[O-]', '> 150 µM'),
  ('O=[N+]([O-])c1cccc2nsnc12', '50 µM'),
  ('O=[N+]([O-])c1ccc2nccnc2c1', '> 200 µM'),
  ('O=[N+]([O-])c1cc(C(F)(F)F)cc([N+](=O)[O-])c1Cl', '100 µM');
